Assay: Dissolution capacity of diluents/solvents for Dioxacarb and Arprocarb
Type: physicochemical
Conditions: at 20° C; solute Dioxacarb
readout-type: Dissolving capacity for Dioxacarb

compound: CO
Dissolving capacity for Dioxacarb: 20.5%

Now consider a different compound.
Suppose we examine the compound COC(C)=O [Methylacetate] ; what Dissolving capacity for Dioxacarb value has been reported?
19.6%
